Target: human GLP-1 receptor (human, UniProt P43220 24-463)
Experiment: cell-based or functional assay
Numbered stars: 1 amine (or outer) side, 2 acyl side, 3 side chain; on linkers, the order of the positions; unused ones are H or OH. Square brackets hold non-standard residues; d marks the D form. Side chains are listed from the residue outwards. * marks the point of attachment. C18 diacid = O=C(O)CCCCCCCCCCCCCCCCC(=O)*; γGlu = O=C(O)[C@H](CCC(=O)[*:2])N[*:1]; Chem. 28 = not defined here; AEEA = NCCOCCOCC(=O)O; Aib = CC(C)(N)C(=O)O
reported-endpoint: hGLP-1R Potency, no HSA, EC50 [pM]

Consider the following illustrative entries.
>  <binder>
Compound 108 (reading uncertain) peptide: H[Aib]HGTFTSDYSILLEEQAAREFIEWLLAGGPSSGALQAPGQAPLASHLSTAQTARLSAELHK(Chem. 28)LATLPRTETGSGSP-NH2

>  <reported-result>
4.57 pM

$$$$
>  <binder>
Compound 25 (reading uncertain) peptide: H[Aib]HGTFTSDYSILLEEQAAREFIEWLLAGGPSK(Chem. 28)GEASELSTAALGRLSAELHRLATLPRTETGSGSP-NH2

>  <reported-result>
2.87 pM

$$$$
>  <binder>
Compound 32 (reading uncertain) peptide: Y[Aib]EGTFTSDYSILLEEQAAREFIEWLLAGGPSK(Chem. 28)GAEASELSTAALGRLSAELHELATLPRTETGSGSP-NH2

>  <reported-result>
27.6 pM

$$$$

Consider now this further binder.
Q: Give the measured hGLP-1R Potency, no HSA, EC50 [pM] of Compound 71 (peptide) peptide: H[Aib]HGTFTSDYSILLEEQAAREFIEWLLAGGPSRGAPPPSGGGEASHLSTQTQGRLSAELHK([AEEA-AEEA-γGlu-C18 diacid])LATLPRTETGSGSP-NH2 .
Result: 3.34 pM
